Items are presented alongside their recorded fraction bound to HSA.
Molecular target: human serum albumin (HSA) (Homo sapiens)
Sequence (P02768 25-609): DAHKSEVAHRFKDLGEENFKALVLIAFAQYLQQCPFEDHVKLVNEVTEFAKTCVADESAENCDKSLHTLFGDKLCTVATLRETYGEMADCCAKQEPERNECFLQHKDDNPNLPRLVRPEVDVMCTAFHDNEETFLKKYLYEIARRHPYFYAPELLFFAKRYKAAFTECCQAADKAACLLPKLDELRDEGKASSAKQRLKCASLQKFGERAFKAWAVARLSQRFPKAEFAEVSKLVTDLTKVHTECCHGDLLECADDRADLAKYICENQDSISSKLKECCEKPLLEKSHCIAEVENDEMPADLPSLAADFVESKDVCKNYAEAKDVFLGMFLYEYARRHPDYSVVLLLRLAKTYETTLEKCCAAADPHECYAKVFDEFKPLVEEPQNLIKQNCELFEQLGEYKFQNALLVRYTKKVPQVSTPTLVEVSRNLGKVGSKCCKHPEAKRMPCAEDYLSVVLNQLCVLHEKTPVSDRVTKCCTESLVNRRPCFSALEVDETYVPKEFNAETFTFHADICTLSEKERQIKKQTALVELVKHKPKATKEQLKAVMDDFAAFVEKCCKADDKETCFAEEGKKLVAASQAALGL
Assay: Assay with PVP 25 (sink compound) and human serum albumin, new approach
Type: in vitro ADME
Conditions: pH 7.4, PVP 25 4.0% (m/V) as sink compound, HSA 60 mM, membrane MWCO 3.5 kDa, test compound 0.02 mM to 0.6 mM, HPLC, read-out: fu (%) newApproach (binding level to HSA)

> print(dat)
                                        smi  data.value
1  COc1ccc(Cl)cc1C(=O)NCCc1ccc(S(=O)(=O)NC(=O)NC2CCCCC2)cc1           1

Now take the following compound into account.
Requested field: fraction bound to HSA. Item: CN(C)CCCN1c2ccccc2Sc2ccc(Cl)cc21
0.994

----------
Molecular target: human serum albumin (HSA) (Homo sapiens)
Test: Assay with PVP 25 (sink compound) and human serum albumin, new approach
Format: in vitro ADME
Conditions: pH 7.4, PVP 25 4.0% (m/V) as sink compound, HSA 60 mM, membrane MWCO 3.5 kDa, test compound 0.02 mM to 0.6 mM, HPLC
Measurement name: fraction bound

Requested field: fraction bound. Item: CN1/C(=C(/O)Nc2ccccn2)C(=O)c2ccccc2S1(=O)=O [Piroxicame]
99.6%

----------
Test system: plasma protein
Assay: Protein binding determined with conventional methods (literature values / inhouse)
Assay type: in vitro ADME
Conditions: read-out: fu (%) Literature (binding level)
Excerpt: The determined binding levels of the test compound in example 6 (“new approach”) were compared with the values determined with conventional methods (literature values).
Measurement name: fraction bound
Returns: the value as a bare number; no unit string appended.

# query: fraction bound | item COc1ccc(Cl)cc1C(=O)NCCc1ccc(S(=O)(=O)NC(=O)NC2CCCCC2)cc1 | system: plasma protein
0.997

----------
Assay: Equilibrium dialysis, binding to beta-hydroxypropyl-cyclodextrine as sink compound
Conditions: beta-hydroxypropyl-cyclodextrine 10% (m/V); test compound 0.02 mM-0.06 mM; membrane cut off 1 kDa; DMSO 6% (V/V)
Measurement name: Average Binding [%] to beta-hydroxypropyl-cyclodextrine (%)
Please give a number only; it is taken to be in %.

> print(dat)
                                   compound  data.value
1  O=C(O)Cc1ccccc1Nc1c(Cl)cccc1Cl [Diclofenac]        23.1

Requested field: Average Binding [%] to beta-hydroxypropyl-cyclodextrine. Item: C=C[C@H]1C[N@@]2CC[C@H]1C[C@H]2[C@H](O)c1ccnc2ccc(OC)cc12 [Quinine]
21.6

Requested field: Average Binding [%] to beta-hydroxypropyl-cyclodextrine. Item: CO/N=C(\C(=O)N[C@@H]1C(=O)N2C(C(=O)O)=C(CSc3nc(=O)c(=O)[nH]n3C)CS[C@H]12)c1csc(N)n1 [Ceftriaxone]
14.2

Requested field: Average Binding [%] to beta-hydroxypropyl-cyclodextrine. Item: NC(=O)N1c2ccccc2C=Cc2ccccc21 [Carbamazepin]
31.3

Taken from patent US8778617B2.
